Where these numbers come from: patent US20260306460A1

Each entry below carries its recorded Wound size (mm).
tested on: naturally aged C57BL6J mice; assay type: in vivo, mouse; details: after 7 days; 6 mm punch dorsal skin wounds; naturally aged mice; untreated aged 3.2 (±0.4)

entry smiles: C[C@@H]1CC[C@@]23C[C@H](O)C(=O)[C@@]2(O)[C@]1(C)[C@H](OC(=O)CCl)C[C@@H](C1=CCn2c(=O)n(-c4ccccc4)c(=O)n2C1)[C@@H]3C
Wound size (mm): 2.5 (±0.6) mm
//
entry smiles: C=C(C)[C@@H]1CC[C@]2(C(=O)O)CC[C@]3(C)[C@H](CC[C@@H]4[C@@]5(C)CC[C@H](O)C(C)(C)[C@@H]5CC[C@]43C)[C@@H]12
Wound size (mm): 2.9 (±0.3) mm
//
entry smiles: O=C(C(C[N+](=O)[O-])=NO)N1CCN(C(c2ccc(Cl)cc2)c2ccc(Cl)cc2)CC1
Wound size (mm): 1.9 (±0.2) mm
//
entry smiles: C#CC(=O)N1[C@@H](CCCC)Cc2cc(OC)ccc2[C@@H]1c1ccc(NC23CC4CC(CC(C4)C2)C3)cc1
Wound size (mm): 1.6 (±0.1) mm
//
entry smiles: CCCC\C=C/C=C/C=C\CCCCCCCC(=O)O
Wound size (mm): 2.7 (±0.3) mm
//
entry smiles: CC1(C)CC[C@]2(C(=O)O)CC[C@]3(C)C(=CC[C@@H]4[C@@]5(C)CC[C@H](O)C(C)(C)[C@@H]5CC[C@]43C)[C@@H]2C1
Wound size (mm): 2.6 (±0.6) mm

* * *

test system: senescent cells; experiment: Viability of senescent cells (CellTiter-Glo), Example 17, Table 13; conditions: Homo sapiens, read-out: Survival (%)
*1 amine or outer side, *2 acyl side, *3 side chain or, on linkers, in order; H or OH if unused. Where a SMILES comes first, the peptide text is derived from it. Bridges are numbered along the chain shown (N, C = ends). [ ]: non-standard residue; d: D form. The star is where a group is joined. X1 = CC[C@H](C)[C@@H](N[*:1])[C@@H](O)CC(=O)O[C@H](C(=O)[C@H](C)C(=O)[*:2])C(C)C; NMeY = CN[C@@H](Cc1ccc(O)cc1)C(=O)O; dNMeL = CN[C@H](CC(C)C)C(=O)O; Pyruvoyl = CC(=O)C(=O)*
recorded metric: viability at 1.1 µM (%)

compound: COc1ccc(C[C@@H](C)[C@@H](C)Cc2ccc(OC)c(OC)c2)cc1OC
measured on: senescent cells
measured value: 109
--
compound: COc1ccc(CN2C3CC2CN(c2ccc(-c4cc(OCC(C)(C)O)cn5ncc(C#N)c45)cn2)C3)cn1
measured on: senescent cells
measured value: 93.5
--
compound: Cc1cccc([C@H](C)c2cnc[nH]2)c1C
measured on: senescent cells
measured value: 95.1
--
compound: Nc1ncn([C@H]2C[C@@H](O)[C@@H](CO)S2)c(=O)n1
measured on: senescent cells
measured value: 41.8
--
compound: Cn1cc(C[C@@H](N)C(=O)O)c2ccccc21
measured on: senescent cells
measured value: 69.1
--
compound: CC[C@H](C)[C@H]1NC(=O)[C@@H](NC(=O)[C@@H](CC(C)C)N(C)C(=O)[C@@H]2CCCN2C(=O)C(C)=O)[C@@H](C)OC(=O)[C@H](Cc2ccc(OC)cc2)N(C)C(=O)[C@@H]2CCCN2C(=O)[C@H](CC(C)C)NC(=O)[C@@H](C)C(=O)[C@H](C(C)C)OC(=O)C[C@@H]1O [LX-6212, Plitidepsin] (Pyruvoyl-P[dNMeL]T[X1]LP[NMeY](Me); ester 3-C)
measured on: senescent cells
measured value: 52.3

* * *

tested on: naturally aged mice; assay: Anti-aging evaluation in naturally aged mice, Example 31, Table 55; assay type: in vivo, mouse; details: heart, untreated = 1.0;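 note: Vehicle-dosed control mice received solution alone at matching volume, values compare test-compound-treated aged mice against that control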

compound: CCOC(=O)[C@@H](N)CCC(=O)N[C@@H](CSCc1ccccc1)C(=O)N[C@@H](C(=O)OCC)c1ccccc1 [LX-2602, Ezatiostat]
output unit: fold
Heart Sur2a mRNA: 1.7

compound: COC(=O)[C@H]1Cc2c([nH]c3ccccc23)[C@H](c2ccc(S(C)(=O)=O)cc2)N1C(=O)CCl [LX-5401]
output unit: fold
Heart Sur2a mRNA: 1.7

compound: [2H]C12CCN(CC1)C(CO)(COC)C2=O (stereo not shown) [LX-5722]
output unit: fold
Heart Sur2a mRNA: 2.4

compound: COC[C@]1(CO)C(=O)[C@H]2CC[N@]1[C@H](C)C2 [LX-5731]
output unit: fold
Heart Sur2a mRNA: 2.5

compound: C[C@H](N)C(=O)N1C[C@H](CCCB(O)O)[C@](N)(C(=O)O)C1 [LX-3107, Numidargistat]
output unit: fold
Heart Sur2a mRNA: 1.7

compound: CN[C@H](CC(C)C)C(=O)N[C@H]1C(=O)N[C@@H](CC(N)=O)C(=O)N[C@H]2C(=O)N[C@H]3C(=O)N[C@H](C(=O)N[C@H](C(=O)O)c4cc(O)cc(O)c4-c4cc3ccc4O)[C@H](O)c3ccc(c(Cl)c3)Oc3cc2cc(c3O[C@@H]2O[C@H](CO)[C@@H](O)[C@H](O)[C@H]2O[C@H]2C[C@](C)(N)[C@H](O)[C@H](C)O2)Oc2ccc(cc2Cl)[C@H]1O [LX-5424, Vancomycin]
output unit: fold
Heart Sur2a mRNA: 2.3

compound: Fc1ccc(-n2cc(CCCCN3CCC4(CC3)OCc3ccccc34)c3ccccc32)cc1 [LX-1102, Siramesine]
output unit: fold
Heart Sur2a mRNA: 1.8

compound: O=C1C2CCN(CC2)C1(CO)COCc1ccccc1 (stereo not shown) [LX-5711]
output unit: fold
Heart Sur2a mRNA: 2.3

compound: Cc1nc(-c2nc(-c3ccc(OC(F)(F)F)cc3)no2)nn1Cc1cccc(N2CCC(S(C)(=O)=O)CC2)c1 [LX-3200]
output unit: fold
Heart Sur2a mRNA: 1.4

compound: S=C(N/N=C1\CCCc2cccnc21)N1CCN(c2ccccn2)CC1 [LX-801]
output unit: fold
Heart Sur2a mRNA: 2.8

compound: C#CC(=O)N1[C@@H](CCCC)Cc2cc(OC)ccc2[C@@H]1c1ccc(NC23CC4CC(CC(C4)C2)C3)cc1 [LX-5411]
output unit: fold
Heart Sur2a mRNA: 2.5

compound: [2H]C([2H])([2H])OCC1(CO)C(=O)C2CCN1CC2 (stereo not shown) [LX-5721]
output unit: fold
Heart Sur2a mRNA: 2.7

compound: Cc1oncc1C(=O)Nc1ccc(C(F)(F)F)cc1 [LX-1603, Leflunomide]
output unit: fold
Heart Sur2a mRNA: 2.0

compound: CO[C@]1(C(=O)N[C@@H](C)c2ccc(-n3cc(F)cn3)nc2)CC[C@H](c2nc(C)cc(Nc3cc(C)[nH]n3)n2)CC1 [LX-1902, Pralsetinib]
output unit: fold
Heart Sur2a mRNA: 1.5

compound: CCN(CC1C(=O)C2CCN1CC2)C(=O)C(Cl)(Cl)Cl (stereo not shown) [LX-5702]
output unit: fold
Heart Sur2a mRNA: 2.5

compound: CCn1c(C#CCNc2ccccc2)cc2cc(CNC)ccc21 [LX-905]
output unit: fold
Heart Sur2a mRNA: 2.4

compound: CC12CCN(CC1)C(CNC(=O)C(F)(F)F)C2=O (stereo not shown) [LX-5706]
output unit: fold
Heart Sur2a mRNA: 2

compound: Cc1[nH]nc(C(F)(F)F)c1Cc1sc2c(c1C(=O)N1C[C@](C)(O)CO1)c(=O)n(C)c(=O)n2C(C)C [LX-3203]
output unit: fold
Heart Sur2a mRNA: 1.8

compound: CC/C=C\C/C=C\C/C=C\C/C=C\C/C=C\C/C=C\CCC(=O)O [LX-2702, Docosahexaenoic acid]
output unit: fold
Heart Sur2a mRNA: 2.3

compound: CCN(CC)C(=S)SSC(=S)N(CC)CC [LX-1601, Disulfiram]
output unit: fold
Heart Sur2a mRNA: 2.6

compound: COc1cc(OC)cc(N(CCNC(C)C)c2ccc3ncc(-c4cnn(C)c4)nc3c2)c1 [LX-1903, Erdafitinib]
output unit: fold
Heart Sur2a mRNA: 1.4

compound: C[C@@H](Nc1nc(N[C@H](C)C(F)(F)F)nc(-c2cccc(Cl)n2)n1)C(F)(F)F [LX-8726, Vorasidenib]
output unit: fold
Heart Sur2a mRNA: 2.9

* * *

tested on: senescent cells; assay: Viability of senescent cells (CellTiter-Glo), Example 17, Table 13; settings: […]; doxorubicin-induced senescent cells; 0 μM = 100
Decision: Survival (%) >= 80% yields true, all other cases yield false.

compound: COC[C@]1(CO)C(=O)[C@H]2CC[N@]1[C@H](C)C2
category label: true

compound: CCNCc1nc2c(O)c(Cl)cc(Cl)c2c(=O)n1C
category label: true

compound: Nc1cc(COc2c(Cl)cc(C[C@H](N)C(=O)O)cc2Cl)c2oc(-c3ccccc3)nc2c1
category label: false

compound: CCO[C@@H](Cc1ccc(OCCn2c(C)ccc2-c2ccc(SC)cc2)cc1)C(=O)[O-].CCO[C@@H](Cc1ccc(OCCn2c(C)ccc2-c2ccc(SC)cc2)cc1)C(=O)[O-].[Mg+2]
category label: true

compound: CN1CCc2c(c3ccccc3n2Cc2ccc(C(=O)NO)cc2)C1
category label: false

compound: CC(=O)[O-].CC(=O)[O-].CCc1c(CC)c2cc3nc(cnc4cc(OCCOCCOCCOC)c(OCCOCCOCCOC)cc4ncc4nc(cc1[n-]2)C(CCCO)=C4C)C(C)=C3CCCO.O.[Gd+3]
category label: true

compound: CN(CCOc1ccc(CC2SC(=O)NC2=O)cc1)c1ccccn1 (centres unmarked)
category label: false

compound: CCCCCCCCCCCCCCCCCCCC(=O)N[C@H]1CC[C@@]2(C)[C@@H](C1)C[C@@H](O)[C@@H]1[C@@H]2C[C@H](O)[C@]2(C)[C@@H]([C@H](C)CCC(=O)O)CC[C@@H]12
category label: true

compound: CCCCCC/C=C\CCCCCCCCCC(=O)N[C@H]1[C@H](OC[C@H]2O[C@H](OP(=O)([O-])[O-])[C@H](NC(=O)CC(=O)CCCCCCCCCCC)[C@@H](OCCCCCCCCCC)[C@@H]2O)O[C@H](COC)[C@@H](OP(=O)([O-])[O-])[C@@H]1OCC[C@@H](CCCCCCC)OC.[Na+].[Na+].[Na+].[Na+] [LX-9136, Eritoran tetrasodium]
category label: false

compound: O=C1C2=C(CCN(Cc3ccccc3)C2)N2CCN=C2N1Cc1ccc(C(F)(F)F)cc1
category label: false

compound: CN(CC(=O)Nc1nc2ccc(OC(F)(F)F)cc2s1)C(=O)CNC(=O)CN
category label: true
